Origin of measurements: patent US20100298141A1

Listed here are molecules together with their documented Velvetleaf plant response rating.
System: velvetleaf
Test: Test A pre-/postemergence greenhouse test
Format: in vivo, Abutilon theophrasti
Details: Preemergence, 500 g ai/ha; 0 to 100 scale, 0 no effect, 100 complete control
From the text: Seeds of barnyardgrass (Echinochloa crus-galli), crabgrass (Digitaria sanguinalis), giant foxtail (Setaria faberi), morningglory (Ipomoea spp.), redroot pigweed (Amaranthus retroflexus), velvetleaf (Abutilon theophrasti), wheat (Triticum aestivum), and corn (Zea mays) were planted into a blend of loam soil and sand and treated preemergence with a directed soil spray using test compounds formulated in a non-phytotoxic solvent mixture which included a surfactant. […]
Keep the answer to the number alone.

Sample records with Velvetleaf plant response rating:
In [3]: df
Out[3]:
                                   molecule  recorded_number
0  Cn1nc(C(F)(F)F)c(C[S+]([O-])c2ccc(Cl)c[n+]2[O-])c1OCC(F)(F)C(F)(F)F (stereo not shown) [Compound 89]              100
1  CCOc1ccc(S(=O)(=O)Cc2c(C(F)(F)F)nn(C)c2OC(F)F)[n+]([O-])c1 [Compound 105]                0
2  Cn1nc(C(F)(F)F)c(C[S+]([O-])c2cc(C3CC3)cc[n+]2[O-])c1OCC(F)(F)F (stereo not shown) [Compound 121]               80

Next molecule, please.
The recorded Velvetleaf plant response rating for entry CC(C)c1cc[n+]([O-])c([S+]([O-])Cc2c(C(F)(F)F)nn(C)c2OC(F)F)c1 (stereo not shown) [Compound 109] equals 100
